Biological target: hGLP-1R (Homo sapiens, UniProt P43220)
Experiment: cell-based or functional assay
*1 amine or outer side, *2 acyl side, *3 side chain or, on linkers, in order; H or OH if unused. Where no end group is shown, it is not given here. Side-chain parts run from the residue outwards. [ ]: non-standard residue; d: D form. The star is where a group is joined. Decanoyl(10-(4-HOOC-PhO)) = O=C(O)c1ccc(OCCCCCCCCCC(=O)*)cc1; αMePhe(2-F) = C[C@](N)(Cc1ccccc1F)C(=O)O; γGlu = O=C(O)[C@H](CCC(=O)[*:2])N[*:1]; C14 diacid = O=C(O)CCCCCCCCCCCCC(=O)*; αMeY = C[C@](N)(Cc1ccc(O)cc1)C(=O)O; αMeL = CC(C)C[C@](C)(N)C(=O)O; Orn = NCCC[C@H](N)C(=O)O; AEEA = NCCOCCOCC(=O)O; Aib = CC(C)(N)C(=O)O
endpoint_label: cAMP EC50 (pM)
Reply with just the number (in pM).

binder	endpoint_label	unit_label	measured
Y[Aib]EGT[αMePhe(2-F)]TSDV[Aib]I[αMeL]LD[Orn]IAQ[Aib]K([AEEA-AEEA-γGlu-Decanoyl(10-(4-HOOC-PhO))])FI[dE][αMeY]LIEGGPSSGAPPPSK([AEEA-AEEA-γGlu-Decanoyl(10-(4-HOOC-PhO))])-NH2 [Example 383]	cAMP EC50	pM	306
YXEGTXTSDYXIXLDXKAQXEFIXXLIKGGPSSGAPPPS (Y-Aib-EGT-αMeF(2F)-TSDY-Aib-I-αMeL-LD-Orn-K((2-[2-(2-Amino-ethoxy)-ethoxy]-acetyl)2-(10-(4-carboxyphenoxy)decanoyl))AQ-Aib-EFI-(D-Glu)-αMeY-LIK((2-[2-(2-Amino-ethoxy)-ethoxy]-acetyl)2-(10-(4-carboxyphenoxy)decanoyl))GGPSSGAPPPS-NH2) [Example 396]	cAMP EC50	pM	291
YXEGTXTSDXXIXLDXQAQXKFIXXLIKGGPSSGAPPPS (Y-Aib-EGT-αMeF(2F)-TSD-4Pal-Aib-I-αMeL-LD-Orn-QAQ-Aib-K((2-[2-(2-Amino-ethoxy)-ethoxy]-acetyl)2-(γ-Glu)-CO-(CH2)12-CO2H)FI-(D-Glu)-αMeY-LIK((2-[2-(2-Amino-ethoxy)-ethoxy]-acetyl)2-(γ-Glu)-CO-(CH2)12-CO2H)GGPSSGAPPPS-NH2) [Example 488]	cAMP EC50	pM	207

Name the recorded cAMP EC50 of the item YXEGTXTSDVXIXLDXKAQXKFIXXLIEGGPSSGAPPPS (Y-Aib-EGT-αMeF(2F)-TSDV-Aib-I-αMeL-LD-Orn-K((2-[2-(2-Amino-ethoxy)-ethoxy]-acetyl)2-(γ-Glu)-CO-(CH2)12-CO2H)AQ-Aib-K((2-[2-(2-Amino-ethoxy)-ethoxy]-acetyl)2-(γ-Glu)-CO-(CH2)12-CO2H)FI-(D-Glu)-αMeY-LIEGGPSSGAPPPS-NH2) [Example 318] in your answer. 219

Name the recorded cAMP EC50 of the item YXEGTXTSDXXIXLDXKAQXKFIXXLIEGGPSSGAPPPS (Y-Aib-EGT-αMeF(2F)-TSD-4Pal-Aib-I-αMeL-LD-Orn-K(PEG3-(γ-Glu)-CO-(CH2)12-CO2H)AQ-Aib-K(PEG3-(γ-Glu)-CO-(CH2)12-CO2H)FI-(D-Glu)-αMeY-LIEGGPSSGAPPPS-NH2) [Example 404] in your answer. 632

Name the recorded cAMP EC50 of the item Y[Aib]EGT[αMePhe(2-F)]TSDV[Aib]I[αMeL]LD[Orn]K([AEEA-AEEA-γGlu-Decanoyl(10-(4-HOOC-PhO))])AQ[Aib]EFI[dE][αMeY]LIEGGPSSGAPPPSK([AEEA-AEEA-γGlu-Decanoyl(10-(4-HOOC-PhO))])-NH2 [Example 380] in your answer. 176

Name the recorded cAMP EC50 of the item Y[Aib]EGT[αMePhe(2-F)]TSDV[Aib]I[αMeL]LD[Orn]K([AEEA-AEEA-Decanoyl(10-(4-HOOC-PhO))])AQ[Aib]EFI[dE][αMeY]LIK([AEEA-AEEA-Decanoyl(10-(4-HOOC-PhO))])GGPSSGAPPPS-NH2 [Example 397] in your answer. 166

Name the recorded cAMP EC50 of the item YXEGTXTSDXSIXLDXKAQXKFIXXLIXGGPSSGAPPPS (Y-Aib-EGT-αMeF(2F)-TSD-4Pal-SI-αMeL-LD-Orn-K((2-[2-(2-Amino-ethoxy)-ethoxy]-acetyl)2-(γ-Glu)-CO-(CH2)10-CH3)AQ-Aib-K((2-[2-(2-Amino-ethoxy)-ethoxy]-acetyl)2-(γ-Glu)-CO-(CH2)10-CH3)FI-(D-Glu)-αMeY-LI-Orn-GGPSSGAPPPS-NH2) [Example 298] in your answer. 190

Name the recorded cAMP EC50 of the item Y[Aib]EGT[αMePhe(2-F)]TSDV[Aib]I[αMeL]LD[Orn]K([AEEA-AEEA-C14 diacid])AQ[Aib]EFI[dE][αMeY]LIK([AEEA-AEEA-C14 diacid])GGPSSGAPPPS-NH2 [Example 389] in your answer. 190
